- test system: Histone-lysine N-methyltransferase EHMT2 (Homo sapiens) (UniProt Q96KQ7)
- Sequence (Q96KQ7 913-1193 limits assumed): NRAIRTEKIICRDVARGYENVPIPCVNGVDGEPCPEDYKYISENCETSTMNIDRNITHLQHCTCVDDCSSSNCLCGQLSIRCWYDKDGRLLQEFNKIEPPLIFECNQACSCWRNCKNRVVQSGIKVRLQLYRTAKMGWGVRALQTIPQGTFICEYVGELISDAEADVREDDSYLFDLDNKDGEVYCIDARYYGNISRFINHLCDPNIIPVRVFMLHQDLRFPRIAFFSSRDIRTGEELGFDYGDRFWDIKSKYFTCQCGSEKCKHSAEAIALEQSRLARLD
- protocol details: qHTS Assay for Inhibitors of Histone Lysine Methyltransferase G9a; further: nearly all actives have a fitted effect of over 75% in size; further: potency means the concentration at half of the fitted maximal effect
- condition set: G9a H3K9 monomethylation, AlphaScreen, 2 h; series mostly up to 59 µM
About 31,000 (8.9%) of roughly 350,000 compounds were called active. Inconclusive results (about 15%) are left out. Many of the other results were omitted from the sample, so actives are more common in it than they were.
measurement name: Potency

Would you please look over these solved cases?
| compound | Potency |
| --- | --- |
| O=S(=O)(c1ccccc1)c1nc(-c2ccccc2)oc1NCCCN1CCOCC1 | inactive |
| CC(C#N)(NC(=O)CN1CCN(S(=O)(=O)c2cc(C(F)(F)F)ccc2Cl)CC1)C1CC1 (centres undefined) | inactive |
| CCOC(=O)c1oc2c(CN3CCN(CCO)CC3)c(O)c(CC)cc2c(=O)c1-c1nc2ccccc2s1 | 17.8 µM (active) |
| Oc1ccc(/C=N/N(Cc2ccccc2)c2ccccc2)cc1 | 39.8 µM (active) |
| COc1ccc(-c2ccc(CCC(=O)O)n2-c2ccc(O)cc2)cc1 | 31.6 µM (active) |
| Cc1ccc(N(CC(=O)NCc2ccc(Cl)cc2)S(=O)(=O)N(C)C)cc1 | inactive |
| CCn1c(NC(=O)c2ccccc2)c(-c2cccs2)c(=O)c2ccccc21 | inactive |
| COc1ccc(/C=N/N=C2/C(=O)Nc3ccccc32)cc1O | inactive |

Problem: Consider the compound shown here: COc1ccc(Cl)cc1S(=O)(=O)N1CCN(CC(=O)C(C)(C)C)CC1 What is its recorded Potency?
Result: 44.7 µM (active)

----------
- test system: Histone-lysine N-methyltransferase EHMT2 (Homo sapiens) (UniProt Q96KQ7)
- protocol details: qHTS Assay for Inhibitors of Histone Lysine Methyltransferase G9a; further: nearly all actives have a fitted effect of over 75% in size
- condition set: G9a H3K9 monomethylation, AlphaScreen, 2 h; series mostly up to 59 µM
Out of some 350,000 compounds screened, about 31,000 (8.9%) were called active. About 15% were inconclusive and are not listed. The call rests on the fitted dose curve; in most records, active means well fitted inhibition curve with a large enough effect; inconclusive means small, poorly fitted or top-dose-only effect; inactive means no such curve, though single readings can be large or run the other way. The sample as a whole holds a higher share of actives than the screen did.
Choose the fitting class; nothing outside y = active, n = inactive is accepted.

Problem: // param item: O=[N+]([O-])c1cc(C(F)(F)F)ccc1NCCc1ccncc1 ; yields the recorded call
Result: n

Problem: What is the recorded call for this molecule in the test? Cc1ccc(-n2c(C)cc(/C=N/Nc3ccc([N+](=O)[O-])cn3)c2C)c(C)c1
Result: n

Problem: Each molecule tested received a call. Report the one for CCn1c(-c2ccncc2)n[nH]c1=S .
Result: n

Problem: Tell me the assay call for O=C(O)CCCN1C(=O)c2ccccc2Sc2ncccc21 please.
Result: y

Problem: For this molecule, state the assay outcome: Cc1ccc(/C=C2\SC(=S)N(CCC(=O)Nc3ccc(O)cc3)C2=O)cc1
Result: n

Problem: Recorded test call requested for O=C(CCc1ccccc1)NNc1ccc(F)cc1
Result: y

Problem: // return assay outcome for Cc1ccc(NC(=O)c2cc(S(=O)(=O)NCCC3=CCCCC3)ccc2F)cc1C
Result: n

Problem: Give the logged outcome of this assay for the following molecule: Clc1ccc(C[n+]2cc(-c3ccccc3)n3c2CCC3)cc1
Result: n

Problem: In this assay, the call recorded for COCCNC(=O)CCCN1C(=O)c2ccccc2Sc2ncccc21 was what?
Result: n

Problem: What did this assay record as the result for COc1ccccc1-c1nnc(NC(=O)c2cccc(N3C(=O)CCC3=O)c2)o1 ?
Result: y

Problem: Short answer needed: outcome of this test for COc1ccc(S(=O)(=O)c2cn(C)c3cc(N4CCCCC4)c(F)cc3c2=O)cc1 ?
Result: n

Problem: Per the records of this test, what outcome belongs to C#CCOc1ccc(C2CC(=O)Nc3c2c(C)nn3-c2nc(C)cc(C)n2)cc1 (stereo unspecified) ?
Result: n

Problem: What call does the record list for S=c1[nH]nc2c3c4c(sc3ncn12)CCCC4 ?
Result: y

Problem: // return assay outcome for Cn1cc(Cl)c(C(=O)NNC(=S)Nc2cccc(Cl)c2)n1
Result: y

Problem: Which outcome was assigned to O=C(COc1ccc(Cl)cc1[N+](=O)[O-])N1CCCCC1 in this test?
Result: n

Problem: What was the test verdict on COC(=O)C1=C(c2ccccc2)c2ccccc2S(=O)(=O)N1CC(=O)Nc1ccccc1C(F)(F)F ?
Result: n

Problem: Given Cc1ccc2nc(SCC(=O)N3CC(C)OC(C)C3)nc(=O)n2c1 (stereo unspecified) , state the outcome it received in this test.
Result: n

Problem: For O=c1[nH]c2cc(Br)ccc2n2cccc12 , which call appears in the assay record?
Result: n

Problem: Can you look up the reported call for COc1ccccc1-c1cc2nc(C)c(CCC(=O)O)c(C)n2n1 for me?
Result: n

Problem: Per the records of this test, what outcome belongs to C=C(C)CNC(=S)N/N=C/c1ccccc1OCC(=O)O ?
Result: y

Problem: Please indicate how the test categorized Cc1nn(C(=O)c2c(F)cccc2F)c(C)c1S(=O)(=O)N1CCOCC1 .
Result: n
